System: T47D
Assay Method Text: Antiproliferative activity against human T47D cells after 48 hrs by SRB assay
Format: functional
Reported Endpoint: GI50 (µM)
Value expressed in µM; do not type the unit.

Check out these entries, answers already filled in.
Smiles Data	Units Text	GI50
CC1=CC[C@H]2C(C)(C)CCC[C@]2(C)[C@@]12CC[C@@](C)(CC=O)O2	µM	26
CC1=CC[C@H]2C(C)(C)CCC[C@]2(C)[C@@]12CC[C@@](C)(C[C@H]1O[C@@H]1CO)O2	µM	15
CC1=CC[C@H]2C(C)(C)CCC[C@]2(C)[C@@]12CC[C@@](C)(CCn1cc(CCCCc3cn(CC[C@]4(C)CC[C@@]5(O4)C(C)=CC[C@H]4C(C)(C)CCC[C@@]45C)nn3)nn1)O2	µM	4.3
CC1=CC[C@H]2C(C)(C)CCC[C@]2(C)[C@@]12CC[C@@](C)(CC(=O)N(Cc1ccccc1)C(C)(C)C(=O)NCCN1CCOCC1)O2	µM	19

// query Value lookup for GI50; key = CC1=CC[C@H]2C(C)(C)CCC[C@]2(C)[C@@]12CC[C@@](C)(CCn1cc(C[C@]3(C)CC[C@@]4(O3)C(C)=CC[C@H]3C(C)(C)CCC[C@@]34C)nn1)O2
// result 17

// query And for COC(=O)C[C@]1(C)CC[C@@]2(O1)C(C)=CC[C@H]1C(C)(C)CCC[C@@]12C ?
// result 19

// query And for CCOC(=O)/C(C)=C/C[C@]1(C)CC[C@@]2(O1)C(C)=CC[C@H]1C(C)(C)CCC[C@@]12C ?
// result 32

// query And for CC1=CC[C@H]2C(C)(C)CCC[C@]2(C)[C@@]12CC[C@@](C)(CCO)O2 ?
// result 16

// query And for CC[C@@]1(O)C(=O)OCc2c1cc1n(c2=O)Cc2cc3ccccc3nc2-1 ?
// result 2

====

Recorded measurements of log10 GI50, one per entry
System: HeLa
Assay Method Text: Antiproliferative activity against human HeLa cells after 48 hrs by SRB assay
Type: functional
Values reflect log10 of reported GI50 (µM).

Compound	log10 GI50
CC1=CC[C@H]2C(C)(C)CCC[C@]2(C)[C@@]12CC[C@@](C)(CCn1cc(C[C@]3(C)CC[C@@]4(O3)C(C)=CC[C@H]3C(C)(C)CCC[C@@]34C)nn1)O2	1.23
CC1=CC[C@H]2C(C)(C)CCC[C@]2(C)[C@@]12CC[C@@](C)(C[C@@H]1O[C@H]1CO)O2	1.23
COC(=O)C[C@]1(C)CC[C@@]2(O1)C(C)=CC[C@H]1C(C)(C)CCC[C@@]12C	1.20
CC1=CC[C@H]2C(C)(C)CCC[C@]2(C)[C@@]12CC[C@@](C)(CCO)O2	1.23
CC[C@@]1(O)C(=O)OCc2c1cc1n(c2=O)Cc2cc3ccccc3nc2-1 [CAMPTOTHECIN]	-0.22

Now for the compound whose log10 GI50 we want.
// query Provide the documented log10 GI50 with HeLa as the system for CC1=CC[C@H]2C(C)(C)CCC[C@]2(C)[C@@]12CC[C@@](C)(CC(=O)N(Cc1ccccc1)C(C)(C)C(=O)NC(C)(C)C(C)(C)C)O2
// result 1.48

====

Recorded measurements of GI50, one per entry
Test system: HeLa
Assay Method Text: Antiproliferative activity against human HeLa cells after 48 hrs by SRB assay
Format: functional
Value expressed in µM; do not type the unit.

Smiles Data	Measurement Target	Units Text	GI50
CCOC(=O)/C(C)=C/C[C@]1(C)CC[C@@]2(O1)C(C)=CC[C@H]1C(C)(C)CCC[C@@]12C	HeLa	µM	18
CCCCNC(=O)C(C)(C)N(Cc1ccccc1)C(=O)C[C@]1(C)CC[C@@]2(O1)C(C)=CC[C@H]1C(C)(C)CCC[C@@]12C	HeLa	µM	2.9
CC1=CC[C@H]2C(C)(C)CCC[C@]2(C)[C@@]12CC[C@@](C)(CCOC(=O)n1ccnc1)O2	HeLa	µM	18
C#CC[C@]1(C)CC[C@@]2(O1)C(C)=CC[C@H]1C(C)(C)CCC[C@@]12C	HeLa	µM	16
CCOC(=O)/C=C/C[C@]1(C)CC[C@@]2(O1)C(C)=CC[C@H]1C(C)(C)CCC[C@@]12C	HeLa	µM	19

// query Value lookup for GI50; key = CCCCCCCCCCc1cn(CC[C@]2(C)CC[C@@]3(O2)C(C)=CC[C@H]2C(C)(C)CCC[C@@]23C)nn1
// result 25

// query And for CC1=CC[C@H]2C(C)(C)CCC[C@]2(C)[C@@]12CC[C@@](C)(C/C=C/CO)O2 ?
// result 18

// query And for CC1=CC[C@H]2C(C)(C)CCC[C@]2(C)[C@@]12CC[C@@](C)(CC(=O)O)O2 ?
// result 60

// query And for CC1=CC[C@H]2C(C)(C)CCC[C@]2(C)[C@@]12CC[C@@](C)(CCOC(=O)NCCCN(C)C)O2 ?
// result 7.8

Source listed as ChEMBL document CHEMBL2417382.
